# system-name: T1, LRP1 CR3-5 (human)
# T1 construct: range 852-973; also called L1 CR3-5
# T1 sequence (Q07954 852-973): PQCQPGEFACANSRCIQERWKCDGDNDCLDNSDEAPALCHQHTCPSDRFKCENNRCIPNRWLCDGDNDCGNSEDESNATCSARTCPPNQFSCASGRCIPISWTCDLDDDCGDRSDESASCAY
# assay-summary: solid-phase assay; OD at the highest ligand concentration as percent of the highest OD of all ligands
quantity-name: % max

# binder, quantity-name, result
data = [
    ("MegaRAP1 d3 revertant K251E (ligand, not shown: N-terminal hexahistidine and S-peptide tags of pET30(+)a) LDRLRRVSHQGYTTEAKFEEPRVIDLWDLAQSANLTDKELEAFREELKYFEAKIEAHNHYQKQLEIAHEELRHAESVGDGERVSRSREKHALLEGRTKELGYTVKKHLQDLSGRISRAR", "% max", "2%"),
    ("RAP d3 forward mutant H249Y (ligand, The paragraph gives only the position; the change H249Y follows from the mutagenic primers; also called single-site RAP d3 mutant at 249; not shown: N-terminal hexahistidine and S-peptide tags of pET30(+)a) LDRLRRVSHQGYSTEAEFEEPRVIDLWDLAQSANLTDKELEAFREELKYFEAKIEKHNHYQKQLEIAHEKLRHAESVGDGERVSRSREKHALLEGRTKELGYTVKKHLQDLSGRISRAR", "% max", "90%"),
    ("RAP d3 forward mutant K270E (ligand, also called K270E alone; not shown: N-terminal hexahistidine and S-peptide tags of pET30(+)a) LDRLRRVSHQGYSTEAEFEEPRVIDLWDLAQSANLTDKELEAFREELKHFEAKIEKHNHYQKQLEIAHEELRHAESVGDGERVSRSREKHALLEGRTKELGYTVKKHLQDLSGRISRAR", "% max", "4%"),
    ("RAP d3 forward mutant E251K, K270E (ligand, also called K270E in combination with E251K; not shown: N-terminal hexahistidine and S-peptide tags of pET30(+)a) LDRLRRVSHQGYSTEAEFEEPRVIDLWDLAQSANLTDKELEAFREELKHFKAKIEKHNHYQKQLEIAHEELRHAESVGDGERVSRSREKHALLEGRTKELGYTVKKHLQDLSGRISRAR", "% max", "4%"),
]
